B1: LINE1-full (parent)
chain: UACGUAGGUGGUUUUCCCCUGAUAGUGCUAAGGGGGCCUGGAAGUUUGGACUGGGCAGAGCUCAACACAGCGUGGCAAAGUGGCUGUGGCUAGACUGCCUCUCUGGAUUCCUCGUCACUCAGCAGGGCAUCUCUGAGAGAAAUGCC

Variants of: B1
Test: self-cleavage, relative activity (ratio to wild type); higher = more cleavage; in vitro, sequencing; the parent is a self-cleaving ribozyme
Kindly return T if reported self-cleavage is no lower than 0.7; return F if it is lower.

Would you say A59G G82A shows self-cleavage at minimum 0.7? F

Is self-cleavage at least 0.7? Consider A2G U108C T

Check this variant for self-cleavage at or above 0.7: A117U U130C T

State whether the measured self-cleavage reaches 0.7, counting equality as reaching it, for A77G U104A T

Does self-cleavage meet or surpass 0.7 for U119A G122A ? T

Decide: is the reported value of self-cleavage for U20C C38A equal to or greater than 0.7? T

Hi, just wondering whether G27A A79G shows self-cleavage of 0.7 or higher. T
